The reader will find reported log10 of MIC values listed item by item below.
system: Mycobacterium tuberculosis; test: Antimycobacterial activity against multidrug-resistant Mycobacterium tuberculosis 09710 after 7 days by serial double dilution technique; format: functional; details: Mycobacterium tuberculosis, 09710, 168 h
observed-property: log10 of MIC (log10 of the value in µM)

compound	tested-system	log10 of MIC
CO/N=C1\C(=O)N(CN2CCN(c3c(F)cc4c(=O)c(C(=O)O)cn(C5CC5)c4c3OC)CC2)c2ccc(F)cc21	Mycobacterium tuberculosis	0.85
COc1c(N2CCN(CN3C(=O)/C(=N\NC(N)=O)c4cc(F)ccc43)CC2)c(F)cc2c(=O)c(C(=O)O)cn(C3CC3)c12	Mycobacterium tuberculosis	0.83
COc1c(N2CCN(CN3C(=O)/C(=N\NC(N)=O)c4ccccc43)CC2)c(F)cc2c(=O)c(C(=O)O)cn(C3CC3)c12	Mycobacterium tuberculosis	0.84
O=C(O)c1cn(C2CC2)c2cc(N3CCNCC3)c(F)cc2c1=O [CIPROFLOXACIN]	Mycobacterium tuberculosis	1.38
COc1c(N2CCN(CN3C(=O)/C(=N\NC(N)=S)c4ccccc43)CC2)c(F)cc2c(=O)c(C(=O)O)cn(C3CC3)c12	Mycobacterium tuberculosis	0.83
COc1c(N2CCN(CN3C(=O)/C(=N\O)c4ccccc43)CC2)c(F)cc2c(=O)c(C(=O)O)cn(C3CC3)c12	Mycobacterium tuberculosis	1.48
NNC(=O)c1ccncc1 [ISONIAZID]	Mycobacterium tuberculosis	2.67
COc1c(N2CCN(CN3C(=O)C(=O)c4cc(F)ccc43)CC2)c(F)cc2c(=O)c(C(=O)O)cn(C3CC3)c12	Mycobacterium tuberculosis	1.17
COc1c(N2CCN(CN3C(=O)C(=O)c4ccccc43)CC2)c(F)cc2c(=O)c(C(=O)O)cn(C3CC3)c12	Mycobacterium tuberculosis	1.49
COc1c(N2CCN(CN3C(=O)/C(=N\O)c4cc(F)ccc43)CC2)c(F)cc2c(=O)c(C(=O)O)cn(C3CC3)c12	Mycobacterium tuberculosis	1.16
COc1c(N2CCNCC2)c(F)cc2c(=O)c(C(=O)O)cn(C3CC3)c12	Mycobacterium tuberculosis	1.05
CCO/N=C1\C(=O)N(CN2CCN(c3c(F)cc4c(=O)c(C(=O)O)cn(C5CC5)c4c3OC)CC2)c2ccccc21	Mycobacterium tuberculosis	1.45
CO/N=C1\C(=O)N(CN2CCN(c3c(F)cc4c(=O)c(C(=O)O)cn(C5CC5)c4c3OC)CC2)c2ccccc21	Mycobacterium tuberculosis	1.16
